# Test system: MM.1S
# experimentNotes: Alamar Blue viability assay
# Type: cell-based, human
# conditionInfo: Homo sapiens, MM1.S; MM.1S; Multiple myeloma; P53 Wt; 96-hour exposure
recordedMetric: pEC50
# pEC50 = -log10(concentration in molar units)

Query pEC50 on MM.1S for CN(C(=O)/C=C/C1=NCCCO1)c1ncc(-c2cccnc2)s1 [IHSF 115]
5.77

----------
# Test system: RPMI 8266
# experimentNotes: Alamar Blue viability assay
# Type: cell-based
# conditionInfo: Homo sapiens, RPMI8266, Multiple myeloma, P53 Mut, 96-hour exposure
recordedMetric: pEC50
Expect pEC50 as a plain number equal to -log10 of the molar concentration.

Quick check: pEC50 of `CN(C(=O)/C=C/C1=NCCCO1)c1ncc(-c2cccnc2)s1` ?
5.44

----------
# targetDesc: HSF1 (Homo sapiens, UniProt Q00613)
# Construct: functionally linked to an hsp70b promoter and therefore controlled by endogenous HSF1; endogenous in cells; host or cells: HeLa cells / HeLa-derived cell line Z74
# experimentNotes: Z74 cell-based reporter assay: heat-induced RLuc expression controlled by endogenous HSF1
# conditionInfo: Z74 cells; 25 μM IHSF; 2 h exposure, 43° C. 30 min, 6 h at 37° C.; read-out: Inhibition of HSF1 activity at 25 μM IHSF [RLuc] (%)
Threshold rule: inhibition at 25 µM greater than or equal to 60% is T; below that, F.

Exam item: decide whether the reported inhibition at 25 µM for `Cc1csc(NC(=O)/C=C/C(=O)N(C)C)n1` is at least 60%.
F

----------
# targetDesc: HSF1 (Homo sapiens, UniProt Q00613)
# Construct: functionally linked to an hsp70b promoter and therefore controlled by endogenous HSF1; endogenous in cells
# experimentNotes: Z74 cell-based reporter assay: heat-induced RLuc expression controlled by endogenous HSF1
# conditionInfo: Z74 cells, inhibition of HSF1 activity [RLuc]
Here, each record is paired with measured IC50 data.
Respond numerically; units are µM and should not be typed.

# annotated cases, reported IC50 shown
[[record]]
smilesstring = "CCOC(=O)/C=C/C(=O)Nc1ccncc1"
recordedmetric = "IC50"
measurednumber = 23.5

[[record]]
smilesstring = "CCOC(=O)/C=C/C(=O)Nc1nc(-c2ccccc2)cs1"
recordedmetric = "IC50"
measurednumber = 11.3


Recorded IC50 for `CCOC(=O)/C=C/C(=O)Nc1nc(C)c(-c2ccccc2)s1` , please?
9.6

Looking for the measured IC50 of `CCOC(=O)/C=C/C(=O)Nc1nc(-c2ccncc2)cs1` , can you help?
19.8

Returns the measured IC50 for the input compound. Input: `O=C(/C=C/C1=NCCO1)Nc1nccs1`
4.7

Could you share which IC50 value was measured for `CCOC(=O)/C=C/C(=O)Nc1nc(C(=O)OC)c(-c2ccccc2)s1` ?
10.8

Reported IC50, compound `CCOC(=O)/C=C/C(=O)Nc1nc(-c2cccnc2)cs1` : ____
18.7

Requested read-out: IC50. Entry: `CCOC(=O)/C=C/C(=O)Nc1nccs1`
17.8

----------
# Tested on: OV56
# experimentNotes: Alamar Blue viability assay
# Assay type: cell-based
# conditionInfo: Homo sapiens, Ovarian carcinoma, P53 Mut, 96-hour exposure
recordedMetric: pEC50
// field semantics: pEC50 = negative decimal log of concentration (mol/L)

Give the reported pEC50 for `CN(C(=O)/C=C/C1=NCCCO1)c1ncc(-c2cccnc2)s1` (system: OV56).
5.17

----------
# targetDesc: HSF1 (Homo sapiens)
# Construct: functionally linked to an hsp70b promoter and therefore controlled by endogenous HSF1; endogenous in cells; host or cells: HeLa cells / HeLa-derived cell line Z74
# experimentNotes: Z74 cell-based reporter assay: heat-induced RLuc expression controlled by endogenous HSF1
# conditionInfo: Z74 cells; 25 μM IHSF; 2 h exposure, 43° C. 30 min, 6 h at 37° C.; read-out: Inhibition of HSF1 activity at 25 μM IHSF [RLuc] (%)
The threshold is inclusive: inhibition at 25 µM of exactly 50% counts as Y; values below receive N.

These solved cases illustrate the format of a correct answer.
[[record]]
compound = "O=C(/C=C/c1nnco1)Nc1nccs1"
categorylabel = "N"

[[record]]
compound = "O=C(/C=C/C1=NCCCO1)Nc1nccs1"
categorylabel = "Y"

[[record]]
compound = "CCNC(=O)/C=C/C(=O)Nc1nccs1"
categorylabel = "N"

[[record]]
compound = "CCOC(=O)/C=C/C(=O)Nc1ncco1"
categorylabel = "N"

[[record]]
compound = "CCOC(=O)/C=C/C(=O)Nc1ccnc(C)c1"
categorylabel = "Y"


Is reported inhibition at 25 µM greater than or equal to 50% here: `CCOC(=O)/C=C/C(=O)Nc1nncs1`
Y

Evaluate `CCOC(=O)/C=C/C(=O)Nc1cnc(-c2ccccc2)s1` : inhibition at 25 µM at minimum 50%?
Y

Exam item: decide whether the reported inhibition at 25 µM for CCCC(=O)/C=C/C(=O)Nc1nccs1 [IHSF 095, (E)-4-Oxo-N-(thiazol-2-yl)hept-2-enamide] is at least 50%.
N

Kindly determine if inhibition at 25 µM recorded for `CN(C(=O)/C=C/C1=NCCCO1)c1ncc(-c2cccnc2)s1` is above or exactly 50%.
Y

Given the entry `CCOC(=O)/C=C/C(=O)Nc1ncc(-c2ccccc2)s1` , answer whether its inhibition at 25 µM meets or surpasses 50%.
Y

----------
We begin with a simple list: items and their reported inhibition at 25 µM.
# targetDesc: HSF1 (Homo sapiens)
# Construct: functionally linked to an hsp70b promoter and therefore controlled by endogenous HSF1; endogenous in cells; host or cells: HeLa cells / HeLa-derived cell line Z74
# experimentNotes: Z74 cell-based reporter assay: heat-induced RLuc expression controlled by endogenous HSF1
# conditionInfo: Z74 cells; 25 μM IHSF; 2 h exposure, 43° C. 30 min, 6 h at 37° C.; read-out: Inhibition of HSF1 activity at 25 μM IHSF [RLuc] (%)
# Text: For screening this sublibrary, a cell-based assay was developed. We opted for a cell-based assay, because a cell-free assay would have had to be a DNA-binding assay. […] Compounds would be scored as hits that inhibit any factor that is involved in HSF1 activation or prevents HSF1 deactivation. […] A compound was scored as a hit, if it inhibited the activity of wild type HSF1 but not of chimeric HSF1. […]
Could you give me the number in %? Just the number is fine.

[[record]]
molecule = "CCOC(=O)/C=C/C(=O)Nc1ccnc(-c2ccncc2)c1 [IHSF 076]"
targetdesc = "HSF1 (Homo sapiens)"
recordedmetric = "inhibition at 25 µM"
measurednumber = 66

[[record]]
molecule = "CCOC(=O)/C=C/C(=O)Nc1ccnc(-c2ccccc2)c1 [IHSF 049]"
targetdesc = "HSF1 (Homo sapiens)"
recordedmetric = "inhibition at 25 µM"
measurednumber = 85

[[record]]
molecule = "CCOC(=O)/C=C/C(=O)Nc1ncc(C#N)s1 [IHSF 057]"
targetdesc = "HSF1 (Homo sapiens)"
recordedmetric = "inhibition at 25 µM"
measurednumber = 65

[[record]]
molecule = "CCOC(=O)/C=C/C(=O)Nc1nccs1 [IHSF 001]"
targetdesc = "HSF1 (Homo sapiens)"
recordedmetric = "inhibition at 25 µM"
measurednumber = 64

[[record]]
molecule = "O=C(/C=C/C1=NCCO1)Nc1nccs1 [IHSF 092]"
targetdesc = "HSF1 (Homo sapiens)"
recordedmetric = "inhibition at 25 µM"
measurednumber = 99


Which inhibition at 25 µM is listed for CCOC(=O)/C=C/C(=O)Nc1cc(C)nc(C)c1 [IHSF 082] ?
91

Look up inhibition at 25 µM for this molecule: CCOC(=O)/C=C/C(=O)Nc1nc(CC)c(-c2ccccc2)s1 [IHSF 107]
92

----------
# Test system: HCC1143
# experimentNotes: Alamar Blue viability assay
# Type: cell-based
# conditionInfo: Homo sapiens, Breast, P53 Mut, 96-hour exposure
recordedMetric: pEC50
Kindly note that pEC50 refers to -log10 of the concentration in mol/L and answer with the value alone.

Under HCC1143: pEC50 value of `CN(C(=O)/C=C/C1=NCCCO1)c1ncc(-c2cccnc2)s1` ?
5.32

----------
# targetDesc: HSF1 (Homo sapiens, UniProt Q00613)
# Construct: functionally linked to an hsp70b promoter and therefore controlled by endogenous HSF1; endogenous in cells; host or cells: HeLa cells / HeLa-derived cell line Z74
# Sequence (Q00613 1-529): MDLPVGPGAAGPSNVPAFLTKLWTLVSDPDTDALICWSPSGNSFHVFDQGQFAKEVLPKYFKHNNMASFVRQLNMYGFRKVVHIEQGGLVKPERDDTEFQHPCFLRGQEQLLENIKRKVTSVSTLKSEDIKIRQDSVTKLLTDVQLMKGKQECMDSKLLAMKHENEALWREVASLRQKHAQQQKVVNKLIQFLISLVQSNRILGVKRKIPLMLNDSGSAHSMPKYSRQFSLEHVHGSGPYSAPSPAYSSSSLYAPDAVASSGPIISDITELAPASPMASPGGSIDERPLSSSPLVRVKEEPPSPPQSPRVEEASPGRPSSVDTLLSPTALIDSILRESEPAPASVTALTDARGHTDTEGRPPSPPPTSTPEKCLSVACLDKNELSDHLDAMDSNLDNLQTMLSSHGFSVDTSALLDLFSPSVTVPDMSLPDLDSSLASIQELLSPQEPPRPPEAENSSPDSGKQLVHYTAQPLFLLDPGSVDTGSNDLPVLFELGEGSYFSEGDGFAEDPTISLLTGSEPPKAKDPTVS
# experimentNotes: Z74 cell-based reporter assay: heat-induced RLuc expression controlled by endogenous HSF1
# conditionInfo: Z74 cells; 12.5 μM IHSF; negative values marked *: compound enhanced rLuc activity; read-out: Inhibition of HSF1 activity at 12.5 μM IHSF [RLuc] (%)
Respond with Criterion met for inhibition at 12.5 µM values of 40% and above, Criterion not met for values below.

[[record]]
smilesstring = "CCOC(=O)/C=C/C(=O)Nc1nc(C)c(-c2ccccc2)s1"
categorylabel = "Criterion met"

[[record]]
smilesstring = "COC(=O)/C=C/C(=O)Nc1nccs1"
categorylabel = "Criterion not met"

[[record]]
smilesstring = "CCCCOC(=O)/C=C/C(=O)Nc1nccs1"
categorylabel = "Criterion not met"

[[record]]
smilesstring = "CCOC(=O)/C=C/C(=O)Nc1ccncc1"
categorylabel = "Criterion not met"

[[record]]
smilesstring = "CCOC(=O)/C=C/C(=O)Nc1nc(C2CC2)cs1"
categorylabel = "Criterion not met"

[[record]]
smilesstring = "CCOC(=O)/C=C/C(=O)Nc1ncc(-c2cccnc2)s1"
categorylabel = "Criterion met"

[[record]]
smilesstring = "CCOC(=O)/C=C/C(=O)Nc1cnc(-c2ccccc2)s1"
categorylabel = "Criterion not met"

[[record]]
smilesstring = "CCOC(=O)/C=C/C(=O)Nc1ccnc(C)c1"
categorylabel = "Criterion not met"

[[record]]
smilesstring = "CCOC(=O)/C=C/C(=O)Nc1cc(C)nc(C)c1"
categorylabel = "Criterion met"

[[record]]
smilesstring = "CCOC(=O)/C=C/C(=O)Nc1ccon1"
categorylabel = "Criterion not met"


Identify whether the reported inhibition at 12.5 µM of the following compound is 40% or greater: `CCOC(=O)/C=C/C(=O)Nc1nc(-c2ccncc2)cs1`
Criterion not met

Test whether the compound `CCOC(=O)/C=C/C(=O)Nc1ccnc(-c2ccncc2)c1` records inhibition at 12.5 µM of 40% or higher.
Criterion met

Evaluate `CCOC(=O)/C=C/C(=O)N(CCc1cn(C)cn1)c1nccs1` : inhibition at 12.5 µM at minimum 40%?
Criterion not met

Decide: inhibition at 12.5 µM of `O=C(/C=C/C1=NCCO1)Nc1nccs1` >= 40%?
Criterion met

Reported inhibition at 12.5 µM at or above 40%? `CCOC(=O)/C=C/C(=O)Nc1nc(-c2ccccn2)cs1`
Criterion not met

State whether the measured inhibition at 12.5 µM reaches 40%, counting equality as reaching it, for `CCOC(=O)/C=C/C(=O)Nc1ccnc(-c2cccnc2)c1`
Criterion met

Could you verify whether the entry `O=C(/C=C/c1ncccn1)Nc1nccs1` shows inhibition at 12.5 µM of no less than 40%?
Criterion not met

Assess whether reported inhibition at 12.5 µM for `CCOC(=O)/C=C/C(=O)Nc1nc(C)cs1` sits at 40% or higher.
Criterion met

# bool: inhibition at 12.5 µM of `CCOC(=O)/C=C/C(=O)N(CCN1CCOCC1)c1nccs1` >= 40%
Criterion not met

Evaluate `CCOC(=O)/C=C/C(=O)Nc1nccs1` : inhibition at 12.5 µM at minimum 40%?
Criterion not met

// inclusive: inhibition at 12.5 µM at least 40%? input: `CC(C)NC(=O)/C=C/C(=O)Nc1nccs1`
Criterion not met
